Target: Transient receptor potential cation channel subfamily A member 1 (Homo sapiens, UniProt O75762)
Sequence (O75762 whole entry): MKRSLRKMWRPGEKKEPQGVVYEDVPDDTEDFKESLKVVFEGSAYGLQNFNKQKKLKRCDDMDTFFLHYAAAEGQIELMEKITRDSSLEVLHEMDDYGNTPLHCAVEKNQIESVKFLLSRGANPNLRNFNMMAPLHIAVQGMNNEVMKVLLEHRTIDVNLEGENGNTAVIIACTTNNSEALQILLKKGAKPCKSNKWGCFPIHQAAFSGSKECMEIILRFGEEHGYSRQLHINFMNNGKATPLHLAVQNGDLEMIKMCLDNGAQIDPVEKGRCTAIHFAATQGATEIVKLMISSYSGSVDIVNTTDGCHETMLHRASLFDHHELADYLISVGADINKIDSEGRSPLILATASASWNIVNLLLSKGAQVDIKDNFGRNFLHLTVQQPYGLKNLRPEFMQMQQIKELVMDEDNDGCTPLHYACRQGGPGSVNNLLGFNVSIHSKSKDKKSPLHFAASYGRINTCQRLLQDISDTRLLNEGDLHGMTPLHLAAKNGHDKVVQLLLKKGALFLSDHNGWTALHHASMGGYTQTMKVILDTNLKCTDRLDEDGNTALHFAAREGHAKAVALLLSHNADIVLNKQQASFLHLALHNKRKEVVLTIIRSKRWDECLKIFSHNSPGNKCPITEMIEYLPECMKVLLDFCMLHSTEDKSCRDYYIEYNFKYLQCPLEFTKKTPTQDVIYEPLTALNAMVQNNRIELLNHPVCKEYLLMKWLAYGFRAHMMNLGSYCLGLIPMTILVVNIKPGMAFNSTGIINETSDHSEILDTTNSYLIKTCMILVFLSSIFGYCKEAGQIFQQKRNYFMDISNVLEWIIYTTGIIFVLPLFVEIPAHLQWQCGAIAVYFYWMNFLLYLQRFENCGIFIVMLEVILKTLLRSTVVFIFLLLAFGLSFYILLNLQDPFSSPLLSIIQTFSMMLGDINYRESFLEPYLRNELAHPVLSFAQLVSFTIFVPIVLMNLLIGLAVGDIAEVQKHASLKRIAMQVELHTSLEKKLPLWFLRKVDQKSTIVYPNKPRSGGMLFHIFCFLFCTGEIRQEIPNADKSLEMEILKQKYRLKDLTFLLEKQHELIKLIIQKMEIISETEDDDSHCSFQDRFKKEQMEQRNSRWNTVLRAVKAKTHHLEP
Assay: Inhibition of human TRPA1 expressed in HEK293 cells assessed as decrease in AITC-induced calcium influx at 30 uM preincubated for 6 mins followed by AITC addition measured for 1 min by Fluo-4 dye-based assay relative to resveratrol
Assay type: cell-based

# Compound, fold change (FC)
measured = [
    ("Oc1ccc(/C=C/c2ccccc2)cc1 [(E)-4-STYRYLPHENOL]", 0.1),
    ("CCCOc1ccc(/C=C/c2cc(O)cc(O)c2)cc1", 0.1),
    ("Oc1cc(O)cc(/C=C/c2ccccc2O)c1", 0.6),
    ("Oc1cc(O)cc(/C=C/c2cccc3ccccc23)c1", 1.1),
    ("Oc1cc(O)cc(/C=C/c2ccc(OCC3CCCCC3)cc2)c1", -0.1),
    ("COc1ccc(NC(=O)c2cc(O)cc(O)c2)cc1", -0.4),
    ("Oc1cc(O)cc(/C=C/c2ccccc2)c1", -0.1),
    ("Oc1cc(O)cc(/C=C/c2ccc(O)c(O)c2)c1", 0),
    ("Oc1ccc(/C=C/c2ccc(O)c(O)c2)cc1", -0.3),
    ("Oc1ccc(/C=C/c2cc(Br)c(O)c(Br)c2)cc1", 1.4),
    ("Oc1ccc(-c2cc(O)cc(O)c2)cc1", 0.8),
    ("CC(C)(C)/C=C/c1cc(O)cc(O)c1", 0.8),
    ("COc1cc(O)cc(/C=C/c2ccccc2)c1", 0.6),
    ("Oc1cc(O)cc(/C=C/c2ccc(Cl)cc2)c1", 0.5),
    ("Oc1ccc(CCc2cc(O)cc(O)c2)cc1 [DIHYDRORESVERATROL]", 1.2),
]
